# Tested on: UACC-257 melanoma
# assay_method_text: NCI-60 one-dose screen, 48 h (100 = growth as untreated, 0 = no growth, -100 = all killed)
# conditions_used: 10 µM unless noted
This is part of a sample that, as a whole, favours compounds with a hit. Of some 83,000 tested, about 20% had one in any assay.
attribute_measured: growth (%)
Provide the reading as a plain figure in %.

Here are 3 compounds together with their reported answers.
CCCCCCCCCCCC(=O)OC(C)C(=O)Nc1ccccc1 (centres undefined) :: 99.7
O=C(O)/C(Br)=C/c1c[nH]c2ccc(Br)cc12 :: 117
O=C(Nc1ccc(-n2cc(-c3ccncc3)c(-c3ccc(Cl)c(O)c3)n2)cc1)c1cc(C(F)(F)F)cc(C(F)(F)F)c1 :: 63.2

// next item, growth requested
Q) Item COc1ccc(NC(=O)/C=C(C)/C=C/C=C(C)/C=C/C2=C(C)CCCC2(C)C)cc1 : provide growth
A) 87.4

Attribution: PubChem BioAssay (NCI)
